test system: Escherichia coli TOP10; assay: shrunken log2 fold change of peptide-encoding DNA abundance (4.5 h post-induction vs induction); higher = less antimicrobial activity (less host growth inhibition); conditions: time post-induction: 4.5 h; library: site-saturation at positions 5, 18, 19, 20;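 also: peptides expressed intracellularly from a pBAD plasmid library in pooled LB shake-flask culture, induced with 0.3% L-arabinose, DNA abundance read by NGS, three biological replicates, DESeq2 with apeglm shrinkage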
shrunken log2 fold change below -0.002 gives Not met; shrunken log2 fold change at or above it gives Met.

Reference set, count: 5
[[record]]
chain = "RRIRFRPPRLPRPRPRPMDHPRP"
assayed_system = "Escherichia coli TOP10"
assigned_label = "Not met"

[[record]]
chain = "RRIRHRPPRLPRPRPRPTFDPRP"
assayed_system = "Escherichia coli TOP10"
assigned_label = "Met"

[[record]]
chain = "RRIRNRPPRLPRPRPRPQFGPRP"
assayed_system = "Escherichia coli TOP10"
assigned_label = "Not met"

[[record]]
chain = "RRIRPRPPRLPRPRPRPCCKPRP"
assayed_system = "Escherichia coli TOP10"
assigned_label = "Not met"

[[record]]
chain = "RRIRMRPPRLPRPRPRPGIWPRP"
assayed_system = "Escherichia coli TOP10"
assigned_label = "Met"


Does RRIRGRPPRLPRPRPRPDSSPRP have a reported shrunken log2 fold change of at least -0.002? Met

Does RRIRMRPPRLPRPRPRPMHVPRP have a reported shrunken log2 fold change of at least -0.002? Not met

Does RRIRVRPPRLPRPRPRPDWAPRP have a reported shrunken log2 fold change of at least -0.002? Met

Does RRIRDRPPRLPRPRPRPRCMPRP have a reported shrunken log2 fold change of at least -0.002? Not met

Does RRIRDRPPRLPRPRPRPHQIPRP have a reported shrunken log2 fold change of at least -0.002? Not met

Does RRIRSRPPRLPRPRPRPHPEPRP have a reported shrunken log2 fold change of at least -0.002? Met

Does RRIRSRPPRLPRPRPRPTQVPRP have a reported shrunken log2 fold change of at least -0.002? Met

Does RRIRVRPPRLPRPRPRPVKGPRP have a reported shrunken log2 fold change of at least -0.002? Not met

Does RRIRQRPPRLPRPRPRPCHMPRP have a reported shrunken log2 fold change of at least -0.002? Not met

Does RRIRDRPPRLPRPRPRPHWLPRP have a reported shrunken log2 fold change of at least -0.002? Met

Does RRIRARPPRLPRPRPRPESEPRP have a reported shrunken log2 fold change of at least -0.002? Met

Does RRIRMRPPRLPRPRPRPCAYPRP have a reported shrunken log2 fold change of at least -0.002? Met

Does RRIRNRPPRLPRPRPRPSIDPRP have a reported shrunken log2 fold change of at least -0.002? Not met

Does RRIRRRPPRLPRPRPRPKWGPRP have a reported shrunken log2 fold change of at least -0.002? Met

Does RRIRIRPPRLPRPRPRPPMTPRP have a reported shrunken log2 fold change of at least -0.002? Not met

Does RRIRYRPPRLPRPRPRPELHPRP have a reported shrunken log2 fold change of at least -0.002? Not met

Does RRIRIRPPRLPRPRPRPQTVPRP have a reported shrunken log2 fold change of at least -0.002? Not met

Does RRIRPRPPRLPRPRPRPLKGPRP have a reported shrunken log2 fold change of at least -0.002? Met

Does RRIRARPPRLPRPRPRPADMPRP have a reported shrunken log2 fold change of at least -0.002? Met
